Kindly state Emax for each of the entries shown.
- System: P. falciparum Dd2 (PfLuc) line expressing firefly luciferase, asexual blood stage
- Run description: microbe, parasite or virus in culture
- Format: cell-based, Plasmodium falciparum
- Protocol conditions: Plasmodium falciparum, DD2; 11-pt dose response, 96hr; read-out: CDD P. falciparum Luciferase ABS 11-pt Reconfirmation Dose Response (96hr): Maximum inhibition (%)
Numbers only, in %.

Use the examples below as a reference point.
COc1cc(CNCC(O)c2ccc(F)c(F)c2)cc2c1OCO2 (centres unmarked)
99.5
Cc1ccc(CNC(C)c2cc(F)ccc2N2CCN(C)CC2)o1 (centres unmarked)
97.7
COc1ccc2[nH]c(C[C@@H]3C[C@@H](C(C)C)[C@H](CN(C)C)C=C3C)nc2c1
91.5
Clc1ccccc1C1(c2ccnc(C3CCCC3)n2)CCNCC1
98.9

Field Emax (P. falciparum Dd2 (PfLuc) line expressing firefly luciferase, asexual blood stage), entry `Clc1ccc(C2(CNC3=NCCN3)CCCCC2)cc1` : 99.6
